assay: RPMI8226 myeloma cell viability, profiling panel, resazurin fluorescence, basal, 24 h, PK04 Diversity Set (AID 1180); details: higher = more signal;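 note: RPMI8826 multiple myeloma cell line at 5000 cells per well; test concentration not given here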
Value kind: z-score

Solved entries:
Cc1ccc(S[C@]2(C(=O)NCCN3CCOCC3)CC(=O)N(Cc3cc(C(F)(F)F)cc(C(F)(F)F)c3)[C@@H]2c2ccc(CO)cc2I)cc1 : -2.33
CC(C)CNC(=O)[C@@]1(c2ccc([N+](=O)[O-])cc2)CC(=O)N(CC23CC4CC(CC(C4)C2)C3)[C@@H]1c1ccc(CO)cc1 : -3.32
[N-]=[N+]=NCc1ccccc1C[C@]1(C(=O)O)N=C(c2ccc(OCCCO)cc2)O[C@H]1c1ccccc1 : 0.525
CCCCC=C[C@@H](NC(=O)c1ccc(C(=O)OC)cc1)c1ccccc1 : 3.78

// input: 6 compounds below; output: z-score for each
1. CN1C=C(C(=O)OCCS(C)(=O)=O)C(C(=O)OCCS(C)(=O)=O)=CC(CCCO)=CC1C1CC1 (stereo not drawn)
2. O=C1c2ccccc2[C@@]2(Cc3ccccc3N(Cc3ccccc3)C2=O)[C@H](c2ccc(CO)cc2)N1C1CCCCC1
3. C[N+](C)(C)CCCCCCNC(=O)[C@H]1C[C@H]2C(=O)N3CCC[C@H]3C(=O)N2[C@H]1c1ccc(O)cc1
4. COCCOC(=O)N1C(=O)[C@@]2(c3cc(C#CCNC(N)=O)ccc31)[C@H](c1ccc(O)cc1)N1[C@H](c3ccccc3)[C@H](c3ccccc3)OC(=O)[C@H]1[C@@H]2C(=O)NC[C@H](O)c1ccccc1
5. C=CCOC(=O)[C@@H]1[C@H]2C(=O)O[C@H](c3ccccc3)[C@H](c3ccccc3)N2[C@H](c2ccc(OCCOC(=O)[C@@H]3C[C@@H]4C(=O)NCC(=O)N4[C@@H]3c3cccc(OCCO)c3)cc2)[C@@]12C(=O)Nc1ccc(I)cc12
6. C=C[C@@H](COC(C)=O)N(Cc1ccccc1[N+](=O)[O-])S(=O)(=O)c1ccc(Br)cc1

[A]
[0.0101, -0.0776, -0.603, -0.949, 0.487, 0.0192]
